tested_target: IRAK4 (Homo sapiens)
Construct: purchased CARNA Bioscience 09-145
Sequence (Q9NWZ3 1-460): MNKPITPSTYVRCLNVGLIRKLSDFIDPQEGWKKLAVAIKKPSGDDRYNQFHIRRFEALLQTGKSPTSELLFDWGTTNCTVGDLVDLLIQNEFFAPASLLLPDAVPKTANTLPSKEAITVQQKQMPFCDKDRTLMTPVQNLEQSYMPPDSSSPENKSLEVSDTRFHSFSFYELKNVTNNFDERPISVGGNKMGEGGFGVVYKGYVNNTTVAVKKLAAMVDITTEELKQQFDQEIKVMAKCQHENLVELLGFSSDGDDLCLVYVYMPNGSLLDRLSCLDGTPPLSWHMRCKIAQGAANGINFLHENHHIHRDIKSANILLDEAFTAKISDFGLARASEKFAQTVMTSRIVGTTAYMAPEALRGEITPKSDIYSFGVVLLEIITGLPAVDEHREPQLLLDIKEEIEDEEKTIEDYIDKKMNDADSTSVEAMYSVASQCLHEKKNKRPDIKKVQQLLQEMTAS
assay_summary: IRAK-4 activity inhibition assay (Caliper, Peptide 8, 37 μM ATP)
Format: biochemical
applied_conditions: 3.5 nM IRAK4, 1.5 μM Peptide 8, 37 μM ATP, 28° C. 40 minutes; read-out: IRAK-4 activity inhibition IC50
pIC50: −log10 of the molar value.
reported_property: pIC50

>>> observed_measurement("CC1CCc2sc3ncnc(N[C@H]4CC[C@H](N(C)C)CC4)c3c2C1 (some centres unmarked) [Compound I-54]")
"> 5.30"

Name the recorded pIC50 for CC1CCc2sc3ncnc(N[C@H]4CC[C@H](O)CC4)c3c2C1 (relative stereo) [Compound I-37] .
4.70 to 5.30

What measured pIC50 goes with CN[C@H]1CC[C@H](Oc2ncnc3sc4c(c23)CCC4)CC1 [Compound I-66] ?
> 5.30

Which pIC50 is listed for CN(Cc1ccncc1F)[C@H]1CC[C@H](Nc2ncnc3sc4c(c23)CCC4)CC1 [Compound I-111] ?
> 5.30

Item O=C(CN[C@H]1CC[C@H](Oc2ncnc3sc4c(c23)CCC4)CC1)N1CCCC1 [Compound I-135] has what recorded pIC50?
> 5.30

====

tested_target: IRAK4 (Homo sapiens, UniProt Q9NWZ3)
Construct: purchased CARNA Bioscience 09-145
Sequence (Q9NWZ3 1-460): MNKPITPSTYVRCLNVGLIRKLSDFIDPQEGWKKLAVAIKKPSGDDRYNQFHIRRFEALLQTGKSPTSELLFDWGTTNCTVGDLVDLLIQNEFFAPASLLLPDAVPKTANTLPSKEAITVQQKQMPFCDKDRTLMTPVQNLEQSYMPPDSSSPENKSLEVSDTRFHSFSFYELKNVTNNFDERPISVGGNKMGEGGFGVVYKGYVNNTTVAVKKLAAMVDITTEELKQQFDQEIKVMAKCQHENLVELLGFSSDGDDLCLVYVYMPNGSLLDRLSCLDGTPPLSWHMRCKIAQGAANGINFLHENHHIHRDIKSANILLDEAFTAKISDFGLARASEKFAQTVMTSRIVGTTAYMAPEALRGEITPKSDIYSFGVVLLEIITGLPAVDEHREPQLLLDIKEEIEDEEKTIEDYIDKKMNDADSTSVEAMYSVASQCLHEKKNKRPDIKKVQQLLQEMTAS
assay_summary: IRAK-4 activity inhibition assay (Caliper, Peptide 8, 37 μM ATP)
Type: biochemical
applied_conditions: IRAK-4 activity inhibition IC50, 3.5 nM IRAK4, 1.5 μM Peptide 8, 37 μM ATP, 28° C. 40 minutes
reported_property: IC50

Give its IC50 value. Item: "C[N+](C)(C)[C@H]1CC[C@H](Nc2ncnc3sc4c(c23)CCC4)CC1"
20 to 50 µM
